Target: serotonin transporter (SERT) (Homo sapiens, UniProt P31645)
Construct: expressed in transfected cells; host or cells: CHO cells
Sequence (P31645 whole entry): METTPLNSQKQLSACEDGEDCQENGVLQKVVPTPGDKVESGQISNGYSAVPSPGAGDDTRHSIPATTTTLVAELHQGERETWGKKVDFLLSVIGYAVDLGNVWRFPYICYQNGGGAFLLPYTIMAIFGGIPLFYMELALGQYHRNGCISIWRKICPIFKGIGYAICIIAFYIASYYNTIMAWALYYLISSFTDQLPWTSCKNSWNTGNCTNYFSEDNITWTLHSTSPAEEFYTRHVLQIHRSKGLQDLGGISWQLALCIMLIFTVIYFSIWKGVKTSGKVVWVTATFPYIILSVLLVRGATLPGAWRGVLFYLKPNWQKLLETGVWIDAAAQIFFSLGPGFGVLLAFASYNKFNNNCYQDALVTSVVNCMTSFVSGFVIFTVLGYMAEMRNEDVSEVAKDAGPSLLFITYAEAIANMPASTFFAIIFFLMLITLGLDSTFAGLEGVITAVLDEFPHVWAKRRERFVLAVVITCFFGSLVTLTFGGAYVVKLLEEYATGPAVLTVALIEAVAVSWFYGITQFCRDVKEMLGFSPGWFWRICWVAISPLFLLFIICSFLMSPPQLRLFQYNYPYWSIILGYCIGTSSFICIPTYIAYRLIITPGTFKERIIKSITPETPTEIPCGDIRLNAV
Assay: Radioligand binding assay, serotonin transporter (SERT)
Conditions: binding assay, test compound 1×10^−6 M
quantity: inhibition at 1 µM (%)
Just the number please, in %, no unit attached.

For the record O=S(=O)(NC1CCN(CCCc2noc3cc(F)ccc23)C1)c1ccc(Br)cc1 (stereo not drawn) , what value of inhibition at 1 µM is listed for serotonin transporter (SERT) (Homo sapiens, UniProt P31645)? -2

Do the same for CC1(C)Cc2cccc(OCCN3CCC(CNS(=O)(=O)c4cccc(O)c4)C3)c2O1 (stereo not drawn) please 18

Do the same for Cc1cccc(S(=O)(=O)NC2CCN(CCOc3cccc4[nH]ccc34)C2)c1 (stereo not drawn) please 38
